Where do these numbers come from? They come from patent US20210283212A1.

Target: human C5 protein (human, UniProt P01031 19-673; P01031 678-1676)
Test: cell-based or functional assay
Positions of bridges follow the written chain, without caps; N, C: chain ends. Non-standard residues stand in square brackets, D forms with d. Primed or numbered codes have the meaning given here. mXylyl(3) = bridging moiety between the two residues given in brackets; mXylyl″ = bridging moiety between the two marked residues; Ala(1H-tetrazol-5-yl) = N[C@@H](Cc1nnn[nH]1)C(=O)O; Trp(5-F) = N[C@@H](Cc1c[nH]c2ccc(F)cc12)C(=O)O; Trp(7-aza) = N[C@@H](Cc1c[nH]c2ncccc12)C(=O)O; mXylyl(4) = bridging moiety between residues; Trp(1-Me) = Cn1cc(C[C@H](N)C(=O)O)c2ccccc21; Phg = N[C@H](C(=O)O)c1ccccc1; NMeS = CN[C@@H](CO)C(=O)O; Nva = CCC[C@H](N)C(=O)O
experimental.readout: Avg. IC50 (nM), human hemolysis assay

Recorded results for 5 binders are shown here.
Ac-[Nva]C[Phg]TWEY[NMeS]AC[Nva]-NH2 (linker 2-10 via mXylyl(3)) [R3091]
483 nM
Ac-[Nva]C[Phg]T[Trp(1-Me)]EY[NMeS]AC[Nva]-NH2 (linker 2-10 via mXylyl(3)) [R3109]
> 100000 nM
Ac-[Nva]C[Phg]TFEY[NMeS]AC[Nva]-NH2 (linker 2-10 via mXylyl(3)) [R3092]
> 50000 nM
Ac-[Nva]C[Phg]T[Trp(5-F)]EY[NMeS]AC[Nva]-NH2 (linker 2-10 via mXylyl(3)) [R3088]
> 100000 nM
Ac-[Nva]C[Phg]TAEY[NMeS]HC[Nva]-NH2 (linker 2-10 via mXylyl(4)) [R3034]
> 50000 nM

Entry under test: Ac-[Nva]C[Phg]TW[Ala(1H-tetrazol-5-yl)]Y[NMeS]HC[Nva]-NH2 (linker 2-10 via mXylyl(3)) [R3131] . Its Avg. IC50 (nM), human hemolysis assay was > 100000 nM

Entry under test: Ac-[Nva]C[Phg]T[Trp(7-aza)]EY[NMeS]HC[Nva]P[Nva]-NH2 (linker 2-10 via mXylyl″) [R3008] . Its Avg. IC50 (nM), human hemolysis assay was 97 nM

Entry under test: Ac-[Nva]C[Phg]T[dW]EY[NMeS]HC[Nva]-NH2 (linker 2-10 via mXylyl(3)) [R3132] . Its Avg. IC50 (nM), human hemolysis assay was > 100000 nM
